experimental.system: Recombinant JAK1 (Homo sapiens, UniProt P23458)
Construct: purchased Carna Biosciences
Sequence (P23458 whole entry): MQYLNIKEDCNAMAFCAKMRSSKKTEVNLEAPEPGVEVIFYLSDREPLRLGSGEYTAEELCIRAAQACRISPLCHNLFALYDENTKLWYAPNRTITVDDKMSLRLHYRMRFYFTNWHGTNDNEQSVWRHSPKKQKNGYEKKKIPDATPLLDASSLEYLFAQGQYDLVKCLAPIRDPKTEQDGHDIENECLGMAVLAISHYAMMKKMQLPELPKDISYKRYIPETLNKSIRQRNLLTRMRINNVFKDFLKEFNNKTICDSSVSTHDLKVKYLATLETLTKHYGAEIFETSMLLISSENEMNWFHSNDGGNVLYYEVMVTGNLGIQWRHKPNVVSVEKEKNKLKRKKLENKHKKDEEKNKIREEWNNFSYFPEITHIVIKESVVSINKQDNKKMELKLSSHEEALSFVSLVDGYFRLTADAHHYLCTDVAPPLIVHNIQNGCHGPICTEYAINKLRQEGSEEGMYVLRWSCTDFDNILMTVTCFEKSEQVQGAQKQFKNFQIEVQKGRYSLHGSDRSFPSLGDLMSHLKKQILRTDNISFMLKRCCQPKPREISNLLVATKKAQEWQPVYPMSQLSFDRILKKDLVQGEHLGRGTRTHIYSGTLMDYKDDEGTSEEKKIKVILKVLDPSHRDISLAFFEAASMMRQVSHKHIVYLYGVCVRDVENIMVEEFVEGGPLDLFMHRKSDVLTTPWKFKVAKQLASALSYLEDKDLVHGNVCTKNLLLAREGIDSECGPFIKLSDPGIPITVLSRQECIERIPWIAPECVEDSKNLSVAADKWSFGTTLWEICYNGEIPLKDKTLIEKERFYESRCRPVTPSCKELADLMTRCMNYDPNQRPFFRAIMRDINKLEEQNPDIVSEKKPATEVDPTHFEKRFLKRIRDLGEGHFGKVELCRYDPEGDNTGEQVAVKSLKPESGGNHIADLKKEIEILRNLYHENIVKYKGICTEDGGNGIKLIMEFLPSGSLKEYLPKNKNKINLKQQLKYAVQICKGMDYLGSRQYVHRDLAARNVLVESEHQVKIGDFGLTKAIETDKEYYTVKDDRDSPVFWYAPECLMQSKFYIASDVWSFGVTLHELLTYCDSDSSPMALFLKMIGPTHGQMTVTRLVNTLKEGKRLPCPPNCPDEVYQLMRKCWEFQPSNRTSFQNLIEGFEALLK
test: JAK biochemical assay (LANCE Ultra TR-FRET), JAK1
test.settings: recombinant JAK1, TR-FRET; read-out: Biochemical Assay (μM) JAK1
Below, each entry is listed alongside its reported IC50.

{"columns": ["compound", "experimental.system", "IC50"],
 "data": [
  ["OCC(Cc1ccc(-n2cc(-c3ccnc4[nH]cnc34)cn2)nc1)C(F)(F)F (stereo not shown)", "Recombinant JAK1 (Homo sapiens, UniProt P23458)", "< 0.1 µM"],
  ["c1cc(-c2cnn(-c3ccc(CN4CCOCC4)cn3)c2)c2nc[nH]c2n1", "Recombinant JAK1 (Homo sapiens, UniProt P23458)", "> 1 µM"],
  ["CC(NC(=O)Nc1ccc(-c2ccnc3[nH]c(=O)[nH]c23)cc1)C(F)(F)F (stereo not shown)", "Recombinant JAK1 (Homo sapiens, UniProt P23458)", "< 0.5 µM"],
  ["NS(=O)(=O)CCC(c1ccc(-n2cc(-c3ccnc4[nH]cnc34)cn2)nc1)C(F)(F)F (stereo not shown)", "Recombinant JAK1 (Homo sapiens, UniProt P23458)", "< 0.1 µM"]
]}

---

Below, each entry is listed alongside its reported IC50.
Tested on: STAT5 phosphorylation by GMCSF in TF-1 cells
test: JAK cellular assay: STAT5 phosphorylation by GMCSF in TF-1 cells (HTRF)
Type: cell-based
test.settings: Homo sapiens; TF-1 cells, GM-CSF stimulation; read-out: Cell based IC50 (μM) TF-1/GM-CSF
measured.quantity: IC50

{"columns": ["compound", "reported.measurement"],
 "data": [
  ["CN1CCC(C(O)(c2ccc(-n3cc(-c4ccnc5[nH]cnc45)cn3)nc2)C(F)(F)F)CC1 (stereo not drawn)", "> 10 µM"],
  ["CS(=O)(=O)CC[C@@H](c1ccc(-n2cc(-c3ccnc4[nH]cnc34)cn2)nc1)C(F)(F)F", "> 10 µM"],
  ["CC(C)NC(=O)CC[C@@H](c1ccc(-n2cc(-c3ccnc4[nH]cnc34)cn2)nc1)C(F)(F)F", "> 10 µM"]
]}

---

experimental.system: Recombinant JAK2 (Homo sapiens, UniProt O60674)
Construct: purchased Carna Biosciences
Sequence (O60674 whole entry): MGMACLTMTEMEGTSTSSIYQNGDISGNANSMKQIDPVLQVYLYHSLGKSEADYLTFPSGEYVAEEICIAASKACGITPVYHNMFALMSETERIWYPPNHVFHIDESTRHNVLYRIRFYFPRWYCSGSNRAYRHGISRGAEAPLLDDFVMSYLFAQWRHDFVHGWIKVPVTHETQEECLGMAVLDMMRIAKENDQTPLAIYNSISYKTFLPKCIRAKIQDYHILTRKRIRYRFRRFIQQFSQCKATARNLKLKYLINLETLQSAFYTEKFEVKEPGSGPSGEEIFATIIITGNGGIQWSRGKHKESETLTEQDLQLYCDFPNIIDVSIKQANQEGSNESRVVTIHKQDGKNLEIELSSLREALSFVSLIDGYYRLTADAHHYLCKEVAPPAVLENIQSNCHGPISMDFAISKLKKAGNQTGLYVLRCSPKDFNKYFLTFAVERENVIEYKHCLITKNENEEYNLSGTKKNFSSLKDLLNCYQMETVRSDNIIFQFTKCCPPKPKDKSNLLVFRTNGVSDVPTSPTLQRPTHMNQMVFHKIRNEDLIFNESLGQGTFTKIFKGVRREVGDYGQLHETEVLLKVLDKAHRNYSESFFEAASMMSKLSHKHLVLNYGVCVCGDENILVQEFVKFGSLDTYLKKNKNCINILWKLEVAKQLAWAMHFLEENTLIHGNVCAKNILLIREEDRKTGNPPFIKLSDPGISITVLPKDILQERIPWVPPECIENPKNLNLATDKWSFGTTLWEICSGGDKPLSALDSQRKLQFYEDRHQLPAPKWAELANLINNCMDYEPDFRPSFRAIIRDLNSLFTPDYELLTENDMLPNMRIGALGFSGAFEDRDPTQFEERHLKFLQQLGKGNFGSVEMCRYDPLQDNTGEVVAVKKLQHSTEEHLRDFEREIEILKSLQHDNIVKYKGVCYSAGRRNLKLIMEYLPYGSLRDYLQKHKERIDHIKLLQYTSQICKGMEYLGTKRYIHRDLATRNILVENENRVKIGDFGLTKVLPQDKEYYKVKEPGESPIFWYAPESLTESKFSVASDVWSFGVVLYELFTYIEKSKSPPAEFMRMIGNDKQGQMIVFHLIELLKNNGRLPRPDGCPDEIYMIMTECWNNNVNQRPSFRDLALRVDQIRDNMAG
test: JAK biochemical assay (LANCE Ultra TR-FRET), JAK2
test.settings: recombinant JAK2, TR-FRET; read-out: Biochemical Assay (μM) JAK2
Below, each entry is listed alongside its reported IC50.
measured.quantity: IC50

{"columns": ["molecule", "measured.quantity", "reported.measurement"],
 "data": [
  ["COc1cc(-n2cc(-c3ccnc4[nH]cnc34)cn2)ccc1CC#N", "IC50", "> 0.5 µM"],
  ["OC(c1ccc(-n2cc(-c3ccnc4[nH]cnc34)cn2)nc1)(C1CC1)C(F)(F)F (stereo not shown)", "IC50", "0.036 µM"],
  ["N#CC1CN(C(=O)CNC(=O)n2cc(-c3ccnc4[nH]c(=O)[nH]c34)cn2)C1", "IC50", "> 1 µM"],
  ["N#CC1CC(NC(=O)n2cc(-c3ccnc4[nH]c(=O)[nH]c34)cn2)C1 (stereo not shown)", "IC50", "< 0.5 µM"],
  ["CC(C)NC(=O)CC[C@@H](c1ccc(-n2cc(-c3ccnc4[nH]cnc34)cn2)nc1)C(F)(F)F", "IC50", "< 0.1 µM"],
  ["CS(=O)(=O)NC(c1ccc(-n2cc(-c3ccnc4[nH]cnc34)cn2)nc1)C(F)(F)F (stereo not shown)", "IC50", "> 0.1 µM"],
  ["COC(CCS(C)(=O)=O)c1ccc(-n2cc(-c3ccnc4[nH]cnc34)cn2)nc1 (stereo not shown)", "IC50", "> 1 µM"],
  ["OC(CCN1CCOCC1)(c1ccc(-n2cc(-c3ccnc4[nH]cnc34)cn2)nc1)C(F)(F)F (stereo not shown)", "IC50", "< 0.1 µM"],
  ["OC(c1cccc(-n2cc(-c3ccnc4[nH]cnc34)cn2)n1)C(F)(F)F (stereo not shown)", "IC50", "> 0.1 µM"],
  ["CS(=O)(=O)CCC(c1ccc(-n2cc(-c3ccnc4[nH]c(=O)[nH]c34)cn2)nc1)C(F)(F)F (stereo not shown) [Example 1147]", "IC50", "> 1 µM"],
  ["CCN1CC(C(O)(c2ccc(-n3cc(-c4ccnc5[nH]cnc45)cn3)nc2)C(F)(F)F)C1 (stereo not shown)", "IC50", "0.056 µM"],
  ["O=C(NC1CC1)NC(c1ccc(-n2cc(-c3ccnc4[nH]cnc34)cn2)nc1)C(F)(F)F (stereo not shown)", "IC50", "< 0.1 µM"],
  ["c1cc(-c2cnn(-c3ccc(CN4CCOCC4)cn3)c2)c2nc[nH]c2n1", "IC50", "> 1 µM"],
  ["CC(C)NCC[C@@H](c1ccc(-n2cc(-c3ccnc4[nH]cnc34)cn2)nc1)C(F)(F)F", "IC50", "0.01 µM"],
  ["CNCCC(c1ccc(-n2cc(-c3ccnc4[nH]cnc34)cn2)nc1)C(F)(F)F (stereo not shown) [Example 1152]", "IC50", "< 0.1 µM"],
  ["O=C(Nc1ccncc1)Nc1ccc(-c2ccnc3[nH]c(=O)[nH]c23)cc1", "IC50", "> 0.5 µM"]
]}

---

experimental.system: Recombinant TYK2 (Homo sapiens, UniProt P29597)
Construct: purchased Carna Biosciences
Sequence (P29597 whole entry): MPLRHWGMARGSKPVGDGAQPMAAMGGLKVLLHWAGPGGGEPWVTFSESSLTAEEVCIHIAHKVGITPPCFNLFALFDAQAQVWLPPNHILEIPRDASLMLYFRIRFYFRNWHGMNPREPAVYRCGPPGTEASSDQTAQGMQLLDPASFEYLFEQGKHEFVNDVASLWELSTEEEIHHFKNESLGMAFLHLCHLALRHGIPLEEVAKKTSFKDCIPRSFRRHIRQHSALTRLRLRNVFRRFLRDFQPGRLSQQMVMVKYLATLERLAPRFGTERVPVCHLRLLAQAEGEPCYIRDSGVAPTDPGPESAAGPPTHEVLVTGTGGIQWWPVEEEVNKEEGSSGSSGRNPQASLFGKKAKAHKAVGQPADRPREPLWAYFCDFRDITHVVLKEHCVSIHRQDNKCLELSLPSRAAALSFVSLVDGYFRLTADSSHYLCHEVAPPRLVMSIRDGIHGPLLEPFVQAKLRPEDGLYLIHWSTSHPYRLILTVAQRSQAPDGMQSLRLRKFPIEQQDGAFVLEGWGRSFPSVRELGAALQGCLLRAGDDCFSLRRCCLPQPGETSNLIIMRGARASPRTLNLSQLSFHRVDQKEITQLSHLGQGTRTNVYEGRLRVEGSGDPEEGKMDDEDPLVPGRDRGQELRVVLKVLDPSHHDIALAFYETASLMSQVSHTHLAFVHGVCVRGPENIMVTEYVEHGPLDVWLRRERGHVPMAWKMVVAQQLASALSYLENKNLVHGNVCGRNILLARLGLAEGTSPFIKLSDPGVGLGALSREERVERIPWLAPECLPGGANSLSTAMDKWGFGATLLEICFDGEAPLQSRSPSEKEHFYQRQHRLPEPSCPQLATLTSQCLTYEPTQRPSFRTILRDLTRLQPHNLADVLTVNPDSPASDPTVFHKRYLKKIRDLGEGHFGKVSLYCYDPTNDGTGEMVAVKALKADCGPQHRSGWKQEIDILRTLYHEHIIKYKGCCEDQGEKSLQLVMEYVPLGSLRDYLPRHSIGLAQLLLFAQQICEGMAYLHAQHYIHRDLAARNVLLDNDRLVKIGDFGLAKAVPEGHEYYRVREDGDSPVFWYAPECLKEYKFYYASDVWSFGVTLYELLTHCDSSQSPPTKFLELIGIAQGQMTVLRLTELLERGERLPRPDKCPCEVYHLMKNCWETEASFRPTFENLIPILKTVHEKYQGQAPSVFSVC
test: JAK biochemical assay (LANCE Ultra TR-FRET), TYK2
test.settings: read-out: Biochemical IC50 (nM) TYK2

{"columns": ["compound", "IC50"],
 "data": [
  ["CN1CCC(C(O)(c2ccc(-n3cc(-c4ccnc5[nH]cnc45)cn3)nc2)C(F)(F)F)CC1 (stereo not drawn)", "850 nM"],
  ["CC(C)NC(=O)CC[C@@H](c1ccc(-n2cc(-c3ccnc4[nH]cnc34)cn2)nc1)C(F)(F)F", "> 100 nM"],
  ["CS(=O)(=O)CC[C@@H](c1ccc(-n2cc(-c3ccnc4[nH]cnc34)cn2)nc1)C(F)(F)F", "> 1 nM"]
]}

---

Below, each entry is listed alongside its reported IC50.
experimental.system: Recombinant JAK1 (Homo sapiens)
Construct: purchased Carna Biosciences
test: JAK biochemical assay (LANCE Ultra TR-FRET), JAK1
test.settings: recombinant JAK1, TR-FRET; read-out: Biochemical Assay (μM) JAK1

{"columns": ["compound", "experimental.system", "IC50"],
 "data": [
  ["CS(=O)(=O)CCC(c1cccc(-n2cc(-c3ccnc4[nH]cnc34)cn2)n1)C(F)(F)F (centres unmarked) [Example 1175]", "Recombinant JAK1 (Homo sapiens)", "> 1 µM"],
  ["CC(C)[C@@H](C#N)NC(=O)n1cc(-c2ccnc3[nH]cnc23)cn1 [Example 1073]", "Recombinant JAK1 (Homo sapiens)", "> 1 µM"],
  ["COC(c1cccc(-n2cc(-c3ccnc4[nH]cnc34)cn2)n1)C(F)(F)F (centres unmarked) [Example 1171]", "Recombinant JAK1 (Homo sapiens)", "> 1 µM"],
  ["N#CCNC(=O)c1cnc(-n2cc(-c3ccnc4[nH]cnc34)cn2)nc1 [Example 1093]", "Recombinant JAK1 (Homo sapiens)", "> 0.5 µM"],
  ["COC(c1ccc(-n2cc(-c3ccnc4[nH]cnc34)cn2)nc1)(C1CCN(C)CC1)C(F)(F)F (centres unmarked) [Example 1244]", "Recombinant JAK1 (Homo sapiens)", "< 0.1 µM"],
  ["N#CCc1ccc(-n2cc(-c3ccnc4[nH]cnc34)cn2)c(F)c1 [Example 1103]", "Recombinant JAK1 (Homo sapiens)", "> 0.5 µM"],
  ["OC(c1ccc(-n2cc(-c3ccnc4[nH]cnc34)cn2)nc1)C(F)(F)F (centres unmarked) [Example 1169]", "Recombinant JAK1 (Homo sapiens)", "0.013 µM"],
  ["CC1(C)CN(C(=O)N2CCN(c3ccnc4[nH]c(=O)[nH]c34)CC2)C1 [Example 1023]", "Recombinant JAK1 (Homo sapiens)", "> 10 µM"],
  ["O=C(NCC(F)(F)F)n1ccc(-c2ccnc3[nH]c(=O)[nH]c23)c1 [Example 1028]", "Recombinant JAK1 (Homo sapiens)", "> 1 µM"],
  ["CC(CC#N)NC(=O)n1cc(-c2ccnc3[nH]c(=O)[nH]c23)cn1 (centres unmarked) [Example 1052]", "Recombinant JAK1 (Homo sapiens)", "< 0.5 µM"],
  ["CN1CC(C(O)(c2ccc(-n3cc(-c4ccnc5[nH]cnc45)cn3)nc2)C(F)(F)F)C1 (centres unmarked) [Example 1231]", "Recombinant JAK1 (Homo sapiens)", "0.0003 µM"],
  ["N#CC(c1ccc(-n2cc(-c3ccnc4[nH]cnc34)cn2)nc1)N1CC(F)(F)C1 (centres unmarked) [Example 1111]", "Recombinant JAK1 (Homo sapiens)", "< 0.5 µM"],
  ["O=C(C1CC1)N1CCC(C(O)(c2ccc(-n3cc(-c4ccnc5[nH]cnc45)cn3)nc2)C(F)(F)F)CC1 (centres unmarked) [Example 1220]", "Recombinant JAK1 (Homo sapiens)", "< 0.1 µM"],
  ["N#CC(c1ccc(-n2cc(-c3ccnc4[nH]cnc34)cn2)cc1)N1CCOCC1 (centres unmarked) [Example 1101]", "Recombinant JAK1 (Homo sapiens)", "> 0.5 µM"],
  ["CS(=O)(=O)COC(c1ccc(-n2cc(-c3ccnc4[nH]cnc34)cn2)nc1)C(F)(F)F (centres unmarked) [Example 1140]", "Recombinant JAK1 (Homo sapiens)", "< 0.1 µM"],
  ["CS(=O)(=O)CCC(c1ccnc(-n2cc(-c3ccnc4[nH]cnc34)cn2)c1)C(F)(F)F (centres unmarked) [Example 1176]", "Recombinant JAK1 (Homo sapiens)", "> 1 µM"],
  ["FC(F)(F)C(Cl)c1ccc(-n2cc(-c3ccnc4[nH]cnc34)cn2)nc1 (centres unmarked) [Example 1120]", "Recombinant JAK1 (Homo sapiens)", "> 0.05 µM"],
  ["OC(c1ccc(-n2cc(-c3ccnc4[nH]cnc34)cn2)nc1)C1CC1 (centres unmarked) [Example 1159]", "Recombinant JAK1 (Homo sapiens)", "< 0.1 µM"],
  ["OC(CN1CCOCC1)(c1ccc(-n2cc(-c3ccnc4[nH]cnc34)cn2)nc1)C(F)(F)F (centres unmarked) [Example 1229]", "Recombinant JAK1 (Homo sapiens)", "< 0.1 µM"],
  ["COc1cc(-c2nc3c(-c4cnn(C5COCCC5C#N)c4)ccnc3[nH]2)ccc1Cl (centres unmarked) [Example 1097]", "Recombinant JAK1 (Homo sapiens)", "> 10 µM"],
  ["CC(C)N1CCC([C@](O)(c2ccc(-n3cc(-c4ccnc5[nH]cnc45)cn3)cc2)C(F)(F)F)C1 (some centres unmarked) [Example 1251]", "Recombinant JAK1 (Homo sapiens)", "< 0.1 µM"],
  ["CC(C)C(O)(c1ccc(-n2cc(-c3ccnc4[nH]cnc34)cn2)nc1)C(F)(F)F (centres unmarked) [Example 1129]", "Recombinant JAK1 (Homo sapiens)", "< 0.1 µM"],
  ["CNS(=O)(=O)CCC(c1ccc(-n2cc(-c3ccnc4[nH]cnc34)cn2)nc1)C(F)(F)F (centres unmarked) [Example 1142]", "Recombinant JAK1 (Homo sapiens)", "< 0.1 µM"],
  ["CC(CN1CC(C#N)C1)NC(=O)n1cc(-c2ccnc3[nH]cnc23)cn1 (centres unmarked) [Example 1068]", "Recombinant JAK1 (Homo sapiens)", "> 1 µM"],
  ["N#CCCC1CCN(C(=O)n2cc(-c3ccnc4[nH]c(=O)[nH]c34)cn2)C1 (centres unmarked) [Example 1061]", "Recombinant JAK1 (Homo sapiens)", "> 1 µM"],
  ["OC(c1ccc(-n2cc(-c3ccnc4[nH]cnc34)cn2)nc1)(C1CCOCC1)C(F)(F)F (centres unmarked) [Example 1134]", "Recombinant JAK1 (Homo sapiens)", "< 0.1 µM"],
  ["FC(F)(F)C(OCCNC1CC1)c1ccc(-n2cc(-c3ccnc4[nH]cnc34)cn2)nc1 (centres unmarked) [Example 1197]", "Recombinant JAK1 (Homo sapiens)", "< 0.1 µM"],
  ["N#CC(NC(=O)n1cc(-c2ccnc3[nH]c(=O)[nH]c23)cn1)C1CC1 (centres unmarked) [Example 1043]", "Recombinant JAK1 (Homo sapiens)", "0.03 µM"],
  ["CC(=O)N1CCC(c2nc3c(-c4cnn(C(=O)NCC(F)(F)F)c4)ccnc3[nH]2)CC1 [Example 1098]", "Recombinant JAK1 (Homo sapiens)", "> 1 µM"],
  ["N#CCNC(=O)c1ccc(-n2cc(-c3ccnc4[nH]cnc34)cn2)nc1 [Example 1088]", "Recombinant JAK1 (Homo sapiens)", "> 1 µM"],
  ["N#CC1CN(C(=O)n2cc(-c3ccnc4[nH]c(=O)[nH]c34)cn2)C1 [Example 1048]", "Recombinant JAK1 (Homo sapiens)", "< 0.5 µM"],
  ["CS(=O)(=O)N1CCC(C(O)c2ccc(-n3cc(-c4ccnc5[nH]cnc45)cn3)nc2)CC1 (centres unmarked) [Example 1164]", "Recombinant JAK1 (Homo sapiens)", "> 1 µM"]
]}
